system: STK16; details: concentration: 1 μM, replicates: in singlicate; n = 1;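 further: KINOMEscan kinase panel screen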
So I've got a bunch of compounds here, and I need their %Inh values.

Param item = `COc1cc2ncn(-c3cc(OCc4ccncc4)c(C(N)=O)s3)c2cc1OC` ; retrieve measured %Inh.
25%

Param item = `Cc1c(Cn2c(C)nn3c(=O)cc(N4CCO[C@H](C)C4)nc23)cccc1C(F)(F)F` ; retrieve measured %Inh.
6%

Param item = `Nc1n[nH]c2ncc(-c3ccccc3)cc12` ; retrieve measured %Inh.
22%

Param item = `COc1ccc(-n2cnc3c(N)ncnc32)cc1` ; retrieve measured %Inh.
38%

Param item = `CN1C(=O)C(Nc2cc(Cl)c(O)c(Cl)c2)=C(c2ccc(Cl)cc2)C1=O` ; retrieve measured %Inh.
0%

Param item = `CCc1nc(-c2cccc(C)c2)c(-c2ccncc2)s1` ; retrieve measured %Inh.
23%

Param item = `O=C(Nc1n[nH]c2nc(-c3ccccc3)c(Br)cc12)C1CC1` ; retrieve measured %Inh.
0%

Param item = `CCC(=O)c1c(-c2ccccc2)c2cc(Cl)ccc2c(=O)n1Cc1cc(C(=O)NC2CC2)n(C)n1` ; retrieve measured %Inh.
6%

Param item = `CCS(=O)(=O)c1ccc(OC)c(Nc2ncc(-c3ccc(F)cc3)o2)c1.Cl` ; retrieve measured %Inh.
1%
